- protocol.details: qHTS RealTime-Glo MT Cell Viability Assay in HepG2 cells - 8 hour (AID 1224873); also: nearly all actives have a fitted effect of over 55% in size
- stated.conditions: RealTime-Glo luminescence; series mostly up to 76.8 µM
- From the text: National Center for Advancing Translational Sciences [NCATS] NIH Chemical Genomics Center [NCGC] U.S. Environmental Protection Agency [EPA] National Institutes of Environmental Health Sciences [NIEHS] National Toxicology Program [NTP] U.S. Food and Drug Administration [FDA] Measure of cell viability is critical in the cell-base assay. Analysis of cell viability is necessary for the characterization of cell responses to cytotoxic drugs and environmental stress. […]
Results filed as inconclusive are left out. Active and inactive are the calls of the source. Calls follow the shape of the dose curve; as a rule, active = well fitted cell-killing curve with a large enough effect in the repeat runs; inconclusive = weak or mixed curves; inactive = flat fitted curve, though single readings scatter.
Labels: y for active, n for inactive

{"columns": ["compound", "cat"],
 "data": [
  ["CCCC(C)CCC(C)=O (stereo unspecified)", "n"],
  ["CC[N+](CC)(CC)Cc1ccccc1", "n"],
  ["CC(C)c1ccccc1N", "n"],
  ["C=C(c1ccc(C(=O)O)cc1)c1cc2c(cc1C)C(C)(C)CCC2(C)C", "n"],
  ["CO[Si](CCC1CCC2OC2C1)(OC)OC (stereo unspecified)", "n"],
  ["Cc1c(C(=O)O)cccc1[N+](=O)[O-]", "n"],
  ["c1ccc(Nc2cccc3ccccc23)cc1", "n"],
  ["CCCCCCCC(C)=O", "n"],
  ["c1ccc(Sc2ccccc2)cc1", "n"],
  ["CCc1cccc(C)c1", "n"],
  ["CC(C)OC(=O)c1cc(C(=O)OC(C)C)cc([N+](=O)[O-])c1", "n"],
  ["C=CCCCCCCC=C", "n"],
  ["SCCCCCCCCS", "n"],
  ["COc1cccc(CCc2ccccc2OCC(CN(C)C)OC(=O)CCC(=O)O)c1 (stereo unspecified)", "n"],
  ["CCN=C1C=CC(=C(c2ccc(N(CC)CC)cc2)c2ccc(N(CC)CC)cc2)c2ccccc21", "y"],
  ["CC(=O)c1ccccc1N", "n"],
  ["O=Nc1ccc(NO)cc1", "n"],
  ["O=C(O)Cc1ccc(OCCNC[C@H](O)c2ccccc2)cc1", "n"],
  ["O=C[C@H](O)[C@H](O)[C@H](O)CO", "n"],
  ["CC(COC(=O)c1ccccc1)OC(=O)c1ccccc1 (stereo unspecified)", "n"],
  ["Clc1ccc(C(Cn2ccnc2)OCc2c(Cl)cccc2Cl)c(Cl)c1 (stereo unspecified)", "n"]
]}

====

- system.name: Aromatase (Homo sapiens)
- protocol.details: qHTS assay to identify aromatase inhibitors (AID 743083); also: nearly all actives have a fitted effect of over 55% in size
- stated.conditions: MCF-7 aro ERE, testosterone-driven ERE luciferase, 24 h; series mostly up to 70.3 µM
Records with an inconclusive call do not appear. Active and inactive are the calls of the source. Calls follow the shape of the dose curve; as a rule, active = well fitted inhibition curve with a large enough effect in the repeat runs; inconclusive = weak or mixed curves; inactive = no such curve, though single readings can be large or run the other way.
Labels: true for active, false for inactive

{"columns": ["compound", "system.name", "cat"],
 "data": [
  ["O=Nc1ccc(NO)cc1", "Aromatase (Homo sapiens)", "false"],
  ["Cc1nc(Nc2ncc(C(=O)Nc3c(C)cccc3Cl)s2)cc(N2CCN(CCO)CC2)n1", "Aromatase (Homo sapiens)", "true"],
  ["CC(C(O)c1ccccc1)N(C)CCOC(c1ccccc1)c1ccccc1 (configuration not stated)", "Aromatase (Homo sapiens)", "true"],
  ["CC(=O)Nc1ccc(O)cc1", "Aromatase (Homo sapiens)", "false"],
  ["CCCC(CC)CCCCCCCN (configuration not stated)", "Aromatase (Homo sapiens)", "false"],
  ["O=C1OC(OC(=O)c2cccnc2Nc2cccc(C(F)(F)F)c2)c2ccccc21 (configuration not stated)", "Aromatase (Homo sapiens)", "false"],
  ["CCC(C)(C)c1cc(O)c(C(C)(C)CC)cc1O", "Aromatase (Homo sapiens)", "true"]
]}

====

- protocol.details: qHTS assay to identify small molecule antagonists of the estrogen related receptor signaling pathway with the pleiotropic PPARgamma coactivator (PGC) from Tox21 10K library (AID 1224841); also: actives are mostly falling curves and most rising ones were filed inactive; nearly all actives have a fitted effect of over 50% in size
- stated.conditions: PGC/ERR reporter cell line, ONE-Glo luciferase, 18 h; series mostly up to 92.4 µM
Inconclusive results are not listed. Calls of active or inactive are those of the source. The rule behind the calls is not given here.
Labels: active, inactive

{"columns": ["compound", "cat"],
 "data": [
  ["COc1cc(C=C2CCC/C(=C\\c3ccc(O)c(OC)c3)C2=O)ccc1O", "active"],
  ["CCN(CC)CCNc1ccc(CO)c2sc3ccccc3c(=O)c12", "active"],
  ["CC(C)(c1cc(Br)c(O)c(Br)c1)c1cc(Br)c(O)c(Br)c1", "inactive"],
  ["C=CC/C=C/C/C=C/C/C=C/C", "inactive"],
  ["Cn1cccc1", "inactive"],
  ["Nc1cc(Cl)c([N+](=O)[O-])cc1O", "inactive"],
  ["Clc1ccc(C(Cn2ccnc2)OCc2ccsc2Cl)c(Cl)c1 (stereo not given)", "active"],
  ["CCCCCCCCCCCCCOP(=O)(O)O", "inactive"],
  ["CCO[Si](C)(C)OCC", "active"],
  ["CCC(C)c1cc([N+](=O)[O-])cc([N+](=O)[O-])c1OC(=O)OC(C)C (stereo not given)", "active"],
  ["CCCCCCOc1cc(C)c(O)c(C)c1C", "inactive"],
  ["Cc1nc(Nc2ncc(C(=O)Nc3c(C)cccc3Cl)s2)cc(N2CCN(CCO)CC2)n1", "inactive"],
  ["CNC(=S)NN", "active"],
  ["ClC/C=C\\CCl", "inactive"],
  ["Cc1ccc2ccc3cccc4ccc1c2c34", "inactive"],
  ["O=C(c1ccccc1)c1cc(Cl)ccc1O", "inactive"],
  ["COc1ccc2sc(C(=O)Nc3nnn[nH]3)c(OC(C)C)c2c1", "active"],
  ["CC(C)(C)c1n[nH]c(=O)n(N)c1=O", "inactive"],
  ["O=S(=O)(O)CCCN1CCOCC1", "inactive"],
  ["CCc1cccc(CC)c1N(COC)C(=O)CS(=O)(=O)O", "inactive"],
  ["S=P(N1CC1)(N1CC1)N1CC1", "active"],
  ["CCc1cccc(CC)c1NC(=O)C(=O)O", "inactive"],
  ["C#CC(O)CCC (stereo not given)", "inactive"],
  ["CN(Cc1cc(Br)cc(Br)c1N)C1CCCCC1", "inactive"],
  ["NCCCCCCNCCCCCCN", "inactive"],
  ["O=C1c2c(O)ccc([N+](=O)[O-])c2C(=O)c2c([N+](=O)[O-])ccc(O)c21", "active"],
  ["O=C1c2c(O)ccc(O)c2C(=O)c2c(NCCNCCO)ccc(NCCNCCO)c21", "inactive"],
  ["C(=C/c1ccccc1)/c1ccccc1", "inactive"],
  ["CC(C)OC(=O)c1cc(C(=O)OC(C)C)cc([N+](=O)[O-])c1", "inactive"],
  ["C=C1C(C)(C)[C@@]2(Cl)C(Cl)[C@]1(Cl)C(Cl)(Cl)C2(Cl)Cl (stereo not given in full)", "active"]
]}

====

- protocol.details: qHTS assay to identify small molecule agonists of the progesterone receptor (PR) signaling pathway - cell viability counter screen (AID 1346799); also: nearly all actives have a fitted effect of over 45% in size; also: potency is read from the fitted curve at half-maximal effect
- stated.conditions: PR-UAS-bla HEK293T viability, CellTiter-Glo luminescence, 16 h; series mostly up to 92.4 µM
Results filed as inconclusive are left out. Activity calls are given as the source filed them. Calls come from the whole dose curve.

{"columns": ["compound", "Potency"],
 "data": [
  ["CC(CN(C)C)CN1c2ccccc2CCc2ccccc21 (stereo not drawn)", "16.8 µM (active)"],
  ["C(=C/c1ccccc1)/c1ccccc1", "inactive"],
  ["Cc1cncc(C)c1", "inactive"],
  ["CCCCCCCC/C=C\\CCCCCCCC(=O)N(C)CC(=O)O", "68.6 µM (active)"],
  ["CCCCCCCCCC(=O)N(C)C", "inactive"],
  ["CC(C)=CCCC(C)CCOC(=O)C(C)C (stereo not drawn)", "inactive"],
  ["CC1(C)COCN1", "inactive"],
  ["Cc1cn[nH]c1", "inactive"],
  ["CC1CNCC(C)O1 (stereo not drawn)", "inactive"],
  ["Cc1cc(C)c(C=O)c(C)c1", "inactive"],
  ["Oc1ccc(-c2ccc(O)cc2)cc1", "inactive"],
  ["CCOC(OCC)C(=O)c1ccccc1", "inactive"],
  ["Clc1nc2ccccc2s1", "inactive"],
  ["CC(C)(C)C1=CC(=O)C=C(C(C)(C)C)C1=O", "inactive"],
  ["Clc1ccc(C(Cn2ccnc2)OCc2ccsc2Cl)c(Cl)c1 (stereo not drawn)", "8.41 µM (active)"],
  ["Clc1cccnc1", "inactive"],
  ["CCc1ccc(C)nc1", "inactive"],
  ["CCCCCCCCCCCCOC(=O)c1cc(O)c(O)c(O)c1", "60.9 µM (active)"],
  ["C1CC(COCC2CO2)CCC1COCC1CO1 (stereo not drawn)", "inactive"],
  ["Cc1cnccn1", "inactive"],
  ["CCN(CC)CCOc1ccc(C(O)(Cc2ccc(Cl)cc2)c2ccc(C)cc2)cc1 (stereo not drawn)", "23.7 µM (active)"],
  ["CCCCCCCCCCCC(=O)N(CC)CC", "inactive"],
  ["CC1CCCCN1CCCOC(=O)c1ccc(OC2CCCCC2)cc1 (stereo not drawn)", "inactive"],
  ["O=C1NCN(c2ccccc2)C12CCN(CCCC(c1ccc(F)cc1)c1ccc(F)cc1)CC2", "inactive"],
  ["CC1CCCCC1", "inactive"],
  ["COc1cccc(CCc2ccccc2OCC(CN(C)C)OC(=O)CCC(=O)O)c1 (stereo not drawn)", "2.98 µM (active)"],
  ["CN(C)CCN1CCOCC1", "inactive"],
  ["CC1=CP(=O)(c2ccccc2)CC1 (stereo not drawn)", "inactive"],
  ["CCCCCCCOC(=O)c1ccccc1C(=O)OCCCCCCC", "inactive"],
  ["CCN(CC)CCSC(=O)C(c1ccccc1)c1ccccc1", "inactive"],
  ["O=C[C@H](O)[C@H](O)[C@H](O)CO", "inactive"],
  ["C[Si](C)O[Si](C)C", "inactive"],
  ["CNCC[C@H](Oc1cccc2ccccc12)c1cccs1", "21.1 µM (active)"],
  ["CCN(CC)c1cccc(C)c1", "inactive"],
  ["CC(C)=C1CC[C@@H](C)CC1=O", "inactive"],
  ["CCC1CCCCC1", "inactive"],
  ["Cc1oc(-c2ccccc2)nc1CCOc1ccc(C[C@H](Nc2ccccc2C(=O)c2ccccc2)C(=O)O)cc1", "27.3 µM (active)"],
  ["C=CC/C=C/C/C=C/C/C=C/C", "inactive"],
  ["O=C1C=CC(=O)N1c1ccccc1", "61.1 µM (active)"],
  ["CCC1(c2cnc[nH]2)Cc2ccccc2C1", "inactive"],
  ["COc1ccccc1OCCNCC(O)COc1cccc2[nH]c3ccccc3c12 (stereo not drawn)", "15 µM (active)"],
  ["Cc1ccc(O)cn1", "inactive"],
  ["COC(=O)CC(C)CCC=C(C)C (stereo not drawn)", "inactive"]
]}
